Listed next: entries and their corresponding Inhibition.
tested on: Escherichia coli; conditions: Concentration 32 ug.mL-1; ASSAY_TEST Inhibition of Bacterial Growth; detection method Absorption (OD600); MEDIA CAMHB; plate type 384well; NBS; CORNING #3640; time 18 hr
Description: Antibacterial activity against Escherichia coli ATCC 25922 (CO-ADD:GN_001); MIC in CAMBH media using NBS plates, by OD(600)
Measured potencies and affinities stand elsewhere.
ASSAY ENDPOINT: Inhibition (%)

{"COMPOUND": "CC(C)c1sc(N)nc1C(=O)Nc1cc(C(=O)NCCN2CCOCC2)n(C)c1.O=C(O)C(F)(F)F", "ASSAY VALUE": -3.07}
{"COMPOUND": "CC(=O)N(C(C)=O)c1cc(C(=O)Nc2cc(C(=O)NCCC(=N)N)n(C)c2)n(C)c1.O=C(O)C(F)(F)F", "ASSAY VALUE": 6.79}
{"COMPOUND": "COC(=O)CCC(=O)Nc1cc(C(=O)Nc2cc(C(=O)NCCCN(C)C)n(C)c2)n(C)c1.O=C(O)C(F)(F)F", "ASSAY VALUE": -12.96}
{"COMPOUND": "COc1cccc(C(=N)Nc2cc(C(=O)Nc3cc(C(=O)Nc4cc(C(=O)NCCCN(C)C)n(C)c4)n(C)c3)n(C)c2)c1.O=C(O)C(F)(F)F.O=C(O)C(F)(F)F", "ASSAY VALUE": -2.32}
{"COMPOUND": "CCOC(=O)c1cc(NC(=O)c2cc(NC(=O)c3nc(N)sc3CCC(C)C)cn2C)cn1C", "ASSAY VALUE": -10.89}
{"COMPOUND": "COC(=O)c1ccc(C(=O)Nc2cc(C(=O)Nc3cc(C(=O)NCCCN(C)C)n(C)c3)n(C)c2)cc1.O=C(O)C(F)(F)F", "ASSAY VALUE": -9.36}
{"COMPOUND": "Cc1ccc(S(=O)(=O)NCCc2cn(Cc3cnc(C)nc3N)nn2)cc1", "ASSAY VALUE": -13.92}
{"COMPOUND": "COCCOC1CCN(C(=O)c2cc(NC(=O)c3cc(NC(=O)c4ccc(/C=C/c5cnc6ccccc6c5)cc4)cn3C)cn2C)CC1", "ASSAY VALUE": 7.07}
{"COMPOUND": "COC(=O)c1ccc(C(=O)Nc2cc(C(=O)Nc3cc(C(=O)NCCN4CCOCC4)n(C)c3)n(C)c2)cc1.O=C(O)C(F)(F)F", "ASSAY VALUE": -5.56}
{"COMPOUND": "Cc1ncc(CNc2ccc(C(F)(F)F)cc2)c(N)n1", "ASSAY VALUE": -11.04}
{"COMPOUND": "Cc1ncc(Cn2cc(CC(N)C(=O)O)nn2)c(N)n1.Cl (centres undefined)", "ASSAY VALUE": -16.87}
{"COMPOUND": "CN(C)CCCNC(=O)c1cc(NC(=O)c2cc(NC(=O)c3ccc(C(=O)O)cc3)cn2C)cn1C.O=C(O)C(F)(F)F", "ASSAY VALUE": -6.1}
{"COMPOUND": "CC(C)CCc1sc(NC(=O)c2cc(NC(=O)c3cc(NC(=O)CCC(=O)O)cn3C)cn2C)nc1C(=O)NCCCN(C)C.O=C(O)C(F)(F)F", "ASSAY VALUE": -16.63}
{"COMPOUND": "CCOC(=O)c1cc(NC(=O)c2cc(NC(=O)c3nc(N)sc3C(C)C)cn2C)cn1C", "ASSAY VALUE": -5.15}
